# assayed-target: ΔPH-PDK1 (aa 51-359; Q66A mutation) (Homo sapiens, UniProt O15530, Q66A)
# Construct: a shortened PDK1 enzyme (aa 51-359; Q66A mutation) is used; His6 (N, cleaved yes)
# Sequence (O15530 51-359 Q66A): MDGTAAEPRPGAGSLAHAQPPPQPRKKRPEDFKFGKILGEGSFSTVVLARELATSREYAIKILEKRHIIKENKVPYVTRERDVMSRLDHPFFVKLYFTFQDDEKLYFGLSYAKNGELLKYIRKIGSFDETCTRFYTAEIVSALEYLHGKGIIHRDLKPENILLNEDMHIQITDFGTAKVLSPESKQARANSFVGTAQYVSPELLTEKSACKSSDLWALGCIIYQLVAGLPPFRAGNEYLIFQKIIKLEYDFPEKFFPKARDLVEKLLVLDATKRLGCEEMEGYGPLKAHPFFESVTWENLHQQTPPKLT
# protocol-description: PDK1 kinase assay II (shortened enzyme)
# Type: biochemical
# condition-set: compound at 10 μM, one asterisk: incubation for 24 h, read-out: % CTL (residual activity of the enzyme relative to DMSO control)
metric-name: remaining activity at 10 µM
Could you kindly put the unit after your number?

Below, 5 compounds whose answers are already recorded.
compound	metric-name	value-observed
Cc1c(C(=O)NC/C=C/c2cc(OC3CCNCC3)c3nc(Nc4ccc(N5CCOCC5)cc4)ncc3c2)c(=O)n(Cc2ccc(F)c(F)c2)n1C	remaining activity at 10 µM	8.9%
C/C(=C\c1ccc2nc(Nc3ccc(CN(C)C)cc3)ncc2c1)CNC(=O)c1cncn(Cc2ccc(F)c(F)c2)c1=O [IV-28]	remaining activity at 10 µM	27.9%
Cc1nc[nH]c1/C=C1\C(=O)Nc2cc(/C=C/CNC(=O)c3c(C)n(C)n(Cc4ccc(F)c(F)c4)c3=O)ccc21 [I-18]	remaining activity at 10 µM	6.6%
CN1CCN(c2ccc(Nc3ncc4cc(/C=C/CNC(=O)c5cncn(Cc6ccc(F)c(F)c6)c5=O)ccc4n3)cc2)CC1 [IV-4]	remaining activity at 10 µM	67.3%
CN1CCC(Nc2ccc(Nc3ncc4cc(C#CCNC(=O)c5cncn(Cc6ccc(F)c(F)c6)c5=O)ccc4n3)cc2F)CC1 [III-31]	remaining activity at 10 µM	6.5%

List reported remaining activity at 10 µM for each of these compounds:
1. Cc1ncc(C(=O)NC/C=C/c2ccc3nc(Nc4ccc(N(C)C5CCN(C)CC5)cc4)ncc3c2)c(=O)n1Cc1ccc(F)c(F)c1
2. CN1CCC(N(C)c2ccc(Nc3ncc4cc(/C=C/CNC(=O)c5cc(Cl)nn(Cc6ccc(F)c(F)c6)c5=O)ccc4n3)cc2)CC1 [IV-40]
3. Cc1c(C(=O)NCC#Cc2cc3cnc(Nc4ccccc4)nc3n(C)c2=O)c(=O)n(Cc2ccc(F)c(F)c2)n1C [III-23]
4. Cc1c(C#CCNC(=O)c2c(C)n(C)n(Cc3ccc(F)c(F)c3)c2=O)c(=O)n(C(C)C)c2nc(Nc3ccc(N4CCOCC4)cc3)ncc12 [III-28]
5. CN(C)Cc1c[nH]c(/C=C2\C(=O)Nc3cc(/C=C/CNC(=O)c4cncn(Cc5ccc(F)c(F)c5)c4=O)ccc32)c1 [I-15]
6. Cc1c(C(=O)NCC#Cc2ccc3nc(Nc4ccc(C(=O)NCCO)cc4)ncc3c2)c(=O)n(Cc2ccc(F)c(F)c2)n1C
7. C/C(=C\c1ccc2c(c1)NC(=O)/C2=C\c1cnc[nH]1)CNC(=O)c1cncn(Cc2ccc(F)c(F)c2)c1=O [I-45]

stdout:
5.8%
25.4%
9.1%
13.8%
15.7%
12.1%
7.9%

stdin: What remaining activity at 10 µM value was documented for this compound, CC(=O)Nc1ccc(Nc2ncc3cc(/C=C/CNC(=O)c4cncn(Cc5ccc(F)c(F)c5)c4=O)ccc3n2)cc1 [IV-47] ?
stdout: 16.6%
